# System: K562 CRISPRi cells
# experiment: Perturb-seq pooled growth measurement (sgRNA counts, growth phenotype γ, relative activity)
# Format: cell-based, human
# experimentalSetup: pooled growth phenotype γ of the Perturb-seq sgRNA, day 5, K562 CRISPRi cells
measuredParameter: gamma_day5

I am curious: what gamma_day5 value has been reported for RPL9_ + _39460483.23-P1P2_04 (guide GGATGTTTCAGTGCTCGTGG; listed as DNA, chemistry not fully specified) ? −0.4171

Item GNB2L1_ + _180670873.23-P1P2_00 (guide GTGCAAGGCGGCGGCAGGAG; listed as DNA, chemistry not fully specified) has what recorded gamma_day5? −0.2908

Report gamma_day5 for HSPE1_ + _198365089.23-P1P2_14 (guide GGAGACTCGCAGTCCTGCCC; listed as DNA, chemistry not fully specified) please. −0.2088

Would you kindly share the measured gamma_day5 for SEC61A1_ −_127771295.23-P1_04 (guide GGCACTGAAGTGTCTCTCGG; listed as DNA, chemistry not fully specified) ? −0.1539

Fill in: gamma_day5 of DUT_ + _48624411.23-P1P2_07 (guide GCGAGCGAGGAGCCCACCGG; listed as DNA, chemistry not fully specified) is ___ −0.7197

gamma_day5 lookup needed for RPS14_ + _149829238.23-P1P2_00 (guide GAGGCCCGGGCGCGACAATC; listed as DNA, chemistry not fully specified) , thanks. −0.7908
